The values you see were collected from patent US20240317847A1.

Catalogue of binders with associated Kd
Biological target: T1, cynomolgus IL-11 (cynomolgus, UniProt P20808 22-199)
T1 construct: Invigate, lot #C290621-19; also called cIL11; cynoL-11
T1 sequence: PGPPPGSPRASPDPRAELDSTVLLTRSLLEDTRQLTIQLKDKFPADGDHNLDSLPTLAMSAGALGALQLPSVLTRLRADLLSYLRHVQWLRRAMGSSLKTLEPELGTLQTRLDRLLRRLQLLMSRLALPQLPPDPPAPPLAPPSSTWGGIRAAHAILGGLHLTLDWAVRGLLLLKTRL
Test: SPR, antibody captured, IL-11 as analyte
metric: Kd (nM)

[
  {
    "binder": "TPP-29404 (antibody, human IgG1, V domains shown) VH: EVQLLESGGGLVQPGGSLRLSCAASGFTFSSYGGHWVRQAPGKGLEWVALISYDGSYKYYADSVKGRFTISRDNSKNTLYLQMNSLRAEDTAVYYCAAGVPDYWGQGTLVTVSS VL: QSVLTQPPSASGTPGQRVTISCSGSSSNIGSYYDVHWYQQLPGTAPKLLIYSNNERPSGVPDRFSGSKSGTSASLAISGLRSEDEADYYCAAWDSSLSGPVFGGGTKLTVL",
    "val": 0.14
  },
  {
    "binder": "TPP-29393 (antibody, human IgG1, V domains shown) VH: EVQLLESGGGLVQPGGSLRLSCAASGFTFSSYGMHWVRQAPGKGLEWVAVISYDGSYKYYADSVKGRFTISRDNSKNTLYLQMNSLRAEDTAVYYCAAGVPDYWGQGTLVTVSS VL: QSVLTQPPSASGTPGQRVTISCSGSSSNIGSDLDVHWYQQLPGTAPKLLIYSNEERPSGVPDRFSGSKSGTSASLAISGLRSEDEADYYCAAWDDSLYGPVFGGGTKLTVL",
    "val": 0.72
  },
  {
    "binder": "TPP-29402 (antibody, human IgG1, V domains shown) VH: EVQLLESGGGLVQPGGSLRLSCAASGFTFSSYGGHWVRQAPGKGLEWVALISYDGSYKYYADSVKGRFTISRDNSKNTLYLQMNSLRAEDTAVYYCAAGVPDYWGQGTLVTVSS VL: QSVLTQPPSASGTPGQRVTISCSGSSSNIGSGLDVHWYQQLPGTAPKLLIYSNEERPSGVPDRFSGSKSGTSASLAISGLRSEDEADYYCAAWDSSLYGPVFGGGTKLTVL",
    "val": 0.32
  },
  {
    "binder": "TPP-29394 (antibody, human IgG1, V domains shown) VH: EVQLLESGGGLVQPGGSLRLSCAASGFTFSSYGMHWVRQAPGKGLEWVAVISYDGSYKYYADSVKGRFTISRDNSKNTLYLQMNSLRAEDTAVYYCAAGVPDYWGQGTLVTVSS VL: QSVLTQPPSASGTPGQRVTISCSGSSSNIGSDYDVHWYQQLPGTAPKLLIYSNNERPSGVPDRFSGSKSGTSASLAISGLRSEDEADYYCAAWDFSLYGPVFGGGTKLTVL",
    "val": 0.67
  },
  {
    "binder": "TPP-29381 (antibody, human IgG1, V domains shown) VH: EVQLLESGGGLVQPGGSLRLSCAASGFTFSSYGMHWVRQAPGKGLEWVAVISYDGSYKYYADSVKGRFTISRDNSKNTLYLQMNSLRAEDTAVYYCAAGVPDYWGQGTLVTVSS VL: QSVLTQPPSASGTPGQRVTISCSGSSSNIGSDYDVHWYQQLPGTAPKLLIYSNNERPSGVPDRFSGSKSGTSASLAISGLRSEDEADYYCSAWDSSLSGPVFGGGTKLTVL",
    "val": 0.43
  }
]
